# IC50 annotations
# Test system: CEM cells HIV-1 protection, formazan growth assay
# ASSAY EXPLANATION: NCI AIDS Antiviral Assay
# STATED CONDITIONS: measured here: growth of uninfected CEM cells
Reply with just the number (in µM).

# annotated cases, reported IC50 shown
Cc1nnc2n1N=C(c1ccc(O)c(O)c1O)CS2
20.4
COc1ccc(NS(=O)c2ccc(OC)cc2)cc1 (stereo unspecified)
15.8

Shift focus to the following entry.
// query Field request: IC50 | item: `CC1(C)C=C(/C=N/Nc2ccc([N+](=O)[O-])cc2)C(C#N)=C(O)C1(C#N)C#N`
// result 53.7

====

# System: CEM cells HIV-1 protection, formazan growth assay
# ASSAY EXPLANATION: NCI AIDS Antiviral Assay
# STATED CONDITIONS: measured here: growth of uninfected CEM cells
The following compounds are shown together with reported log10 IC50 values.
Recorded IC50 (log10, µM)

// known answers, use as guide
CCN1CCC(O)(/C=C/c2ccc(C)cc2C)C(C(=O)/C=C/c2ccc(C)cc2C)C1 (stereo unspecified)
0.51
COc1ccccc1C1SCc2nc3ccccc3n21 (stereo unspecified)
1.56

// query Data request, read-out log10 IC50, for `CCN(CC)CCNc1ccc([N+](=O)[O-])c2nc3ccc(OC)cc3c(N)c12`
// result -0.48

// query Please give the measured log10 IC50 for this compound: `CC(=O)C[P+](c1ccccc1)(c1ccccc1)c1ccccc1`
// result 1.79

// query # query: log10 IC50 of entry `Cc1ccc(-c2cn3c(nc4ccccc43)c(-c3ccccc3)n2)cc1`
// result 2.24

====

# Test system: CEM cells HIV-1 protection, formazan growth assay
# ASSAY EXPLANATION: NCI AIDS Antiviral Assay
# Procedure: The ability of compounds to protect human CEM cells from HIV-1 infection is measured as a screen for new compounds capable of inhibiting the HIV virus. Five concentrations of drug were tested on uninfected and infected cells and cell growth was measured using a soluble formazan assay. […] Compounds that provided at least 50% protection were retested. Compounds that provided at least 50% protection on retest were listed as moderately active. […]
Reported EC50 is given for each of the following compounds.

Some compounds with known EC50 results, for comparison:
CC(C)(O)C(O)COc1c2c(cc3oc(=O)ccc13)OCO2 (centres undefined)
> 813 µM
Cc1ccc(-c2c3c(n(C4OC(CO)C(O)C(O)C4O)c(=S)c2C#N)CC(C)(C)CC3=O)cc1 (centres undefined)
> 200 µM
C=C1C(O)C2(O)OCC34C(CC5C(C)=CC(=O)C(O)C5(C)C23)OC(=O)C(OC(=O)C/C=C(\C)CCCCC)C14 (centres undefined)
> 47.9 µM

// query Quick check: EC50 of `CC(=O)c1cc(C(C)=O)c(CC(=O)C(=O)Nc2cccc(C)c2C)nc1CC(=O)C(=O)Nc1cccc(C)c1C` ?
// result > 200 µM

// query Any idea what EC50 was measured for `CC(C)(C)CNC(=O)NCn1cc(-c2ccccc2)nn1` ?
// result > 200 µM

// query Query: EC50; subject: S=P1(Oc2ccccc2)NNP2(=NP(N3CC3)(N3CC3)=NP(N3CC3)(N3CC3)=N2)NN1 (centres undefined)
// result > 50.1 µM

====

# Test system: CEM cells HIV-1 protection, formazan growth assay
# ASSAY EXPLANATION: NCI AIDS Antiviral Assay;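 active = compounds giving half or more protection of infected cells from virus-caused growth loss, again on retest; inactive = the rest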
In this exercise, the only acceptable responses are yes for active, no for inactive

Please review the following examples before continuing.
CC(C)CCC[C@@H](C)C1CCC2C3CCC4C[C@@H](CCC=C(c5cc(F)c(O)c(C(=O)O)c5)c5cc(F)c(O)c(C(=O)O)c5)CC[C@]4(C)C3CC[C@@]21C (stereo not given in full)
yes
COc1cc(/C=C2/Cc3ccccc3C2=O)ccc1O
no
O=C(OCc1ccccc1)[C@H]1O[C@@H]1C(=O)OCc1ccccc1
no
CC[C@H](OCc1ccccc1)/C(C)=C/C[C@@H](C)CO
no

// query Could you kindly confirm the outcome this assay logged for `Cc1csc(NNC(N)=O)n1` ?
// result no

Data provenance is PubChem BioAssay AID179.
